Measured Activity, listed per entry.
biological target: Protein cereblon/Son of sevenless homolog 1 (Homo sapiens, UniProt Q07889+Q96SW2); assay: PROTAC activity at CRBN/SOS1 in human A549 cells assessed as protein degradation at 1 uM incubated for 24 hrs by immunoblot analysis relative to control; format: cell-based
Sequence (Q07889 whole entry, looked up): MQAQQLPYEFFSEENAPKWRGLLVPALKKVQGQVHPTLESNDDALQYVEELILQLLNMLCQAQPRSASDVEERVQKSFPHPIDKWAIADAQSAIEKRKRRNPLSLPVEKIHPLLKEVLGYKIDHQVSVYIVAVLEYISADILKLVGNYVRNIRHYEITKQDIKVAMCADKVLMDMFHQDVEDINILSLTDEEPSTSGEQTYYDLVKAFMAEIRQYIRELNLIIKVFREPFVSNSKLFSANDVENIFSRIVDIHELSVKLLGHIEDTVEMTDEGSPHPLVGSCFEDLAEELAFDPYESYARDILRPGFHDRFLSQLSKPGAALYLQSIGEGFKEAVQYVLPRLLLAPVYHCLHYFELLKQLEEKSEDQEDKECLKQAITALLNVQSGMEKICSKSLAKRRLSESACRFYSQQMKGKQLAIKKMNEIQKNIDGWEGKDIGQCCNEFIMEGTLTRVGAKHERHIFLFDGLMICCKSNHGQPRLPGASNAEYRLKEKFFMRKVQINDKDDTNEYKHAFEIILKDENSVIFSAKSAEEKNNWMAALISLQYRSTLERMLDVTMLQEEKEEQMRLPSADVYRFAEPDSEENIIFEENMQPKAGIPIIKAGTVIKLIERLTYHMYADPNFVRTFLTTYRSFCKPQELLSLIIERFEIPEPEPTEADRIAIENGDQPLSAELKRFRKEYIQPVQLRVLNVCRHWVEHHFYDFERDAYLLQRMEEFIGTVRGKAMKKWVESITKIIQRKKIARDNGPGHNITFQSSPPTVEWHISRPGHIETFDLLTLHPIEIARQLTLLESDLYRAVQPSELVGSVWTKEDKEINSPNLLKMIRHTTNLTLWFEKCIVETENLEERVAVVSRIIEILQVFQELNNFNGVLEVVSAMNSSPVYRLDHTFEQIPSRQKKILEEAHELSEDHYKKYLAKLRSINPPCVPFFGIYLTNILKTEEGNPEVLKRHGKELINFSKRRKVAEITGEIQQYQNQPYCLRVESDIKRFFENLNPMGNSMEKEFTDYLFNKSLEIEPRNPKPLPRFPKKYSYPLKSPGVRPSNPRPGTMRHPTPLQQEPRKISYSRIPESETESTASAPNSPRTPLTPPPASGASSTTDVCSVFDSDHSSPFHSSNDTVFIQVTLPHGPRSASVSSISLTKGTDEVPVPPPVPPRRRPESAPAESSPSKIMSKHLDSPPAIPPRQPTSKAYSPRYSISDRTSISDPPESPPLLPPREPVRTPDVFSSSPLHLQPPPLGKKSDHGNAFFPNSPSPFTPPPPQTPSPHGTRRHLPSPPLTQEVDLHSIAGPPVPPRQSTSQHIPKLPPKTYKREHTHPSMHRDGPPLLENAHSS
Sequence (Q96SW2 whole entry, looked up): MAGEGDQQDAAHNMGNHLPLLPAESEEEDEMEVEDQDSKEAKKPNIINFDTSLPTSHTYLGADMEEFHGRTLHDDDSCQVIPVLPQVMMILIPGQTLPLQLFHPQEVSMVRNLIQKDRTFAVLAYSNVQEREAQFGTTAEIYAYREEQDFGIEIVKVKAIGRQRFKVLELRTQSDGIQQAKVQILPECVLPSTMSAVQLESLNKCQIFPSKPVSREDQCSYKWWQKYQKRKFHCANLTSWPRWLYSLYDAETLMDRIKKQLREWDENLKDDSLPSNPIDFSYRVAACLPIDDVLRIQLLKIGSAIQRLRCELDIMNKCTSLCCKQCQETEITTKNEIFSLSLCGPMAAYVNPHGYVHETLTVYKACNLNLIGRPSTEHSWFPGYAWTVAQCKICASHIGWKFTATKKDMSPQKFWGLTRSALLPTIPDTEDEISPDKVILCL

- compound: "COc1cc2nc(C)nc(N[C@H](C)c3cc(N)cc(C(F)(F)F)c3)c2cc1O[C@H]1CCN(C(=O)CCCNc2ccc3c(c2)C(=O)N(C2CCC(=O)NC2=O)C3=O)C1 (stereo partly specified)"
  unit_abbreviation: "%"
  Activity: 8.9
- compound: "COc1cc2nc(C)nc(N[C@H](C)c3cc(N)cc(C(F)(F)F)c3)c2cc1O[C@H]1CCN(C(=O)CC(=O)Nc2ccc3c(c2)C(=O)N(C2CCC(=O)NC2=O)C3)C1 (stereo partly specified)"
  unit_abbreviation: "%"
  Activity: 6.1
- compound: "COc1cc2nc(C)nc(N[C@H](C)c3cc(N)cc(C(F)(F)F)c3)c2cc1O[C@H]1CCN(C(=O)CCCCCCCCC(=O)Nc2ccc3c(c2)C(=O)N(C2CCC(=O)NC2=O)C3)C1 (stereo partly specified)"
  unit_abbreviation: "%"
  Activity: 2.5
- compound: "COc1cc2nc(C)nc(N[C@H](C)c3cc(N)cc(C(F)(F)F)c3)c2cc1O[C@H]1CCN(C(=O)CCCCC(=O)Nc2cccc3c2C(=O)N(C2CCC(=O)NC2=O)C3)C1 (stereo partly specified)"
  unit_abbreviation: "%"
  Activity: 1.6
- compound: "COc1cc2nc(C)nc(N[C@H](C)c3cc(N)cc(C(F)(F)F)c3)c2cc1O[C@H]1CCN(C(=O)CCCCC(=O)Nc2ccc3c(c2)CN(C2CCC(=O)NC2=O)C3=O)C1 (stereo partly specified)"
  unit_abbreviation: "%"
  Activity: 10
- compound: "COc1cc2nc(C)nc(N[C@H](C)c3cc(N)cc(C(F)(F)F)c3)c2cc1O[C@H]1CCN(C(=O)CNc2ccc3c(c2)C(=O)N(C2CCC(=O)NC2=O)C3=O)C1 (stereo partly specified)"
  unit_abbreviation: "%"
  Activity: 0

###

biological target: Protein cereblon/Son of sevenless homolog 1 (Homo sapiens, UniProt Q07889+Q96SW2); assay: PROTAC activity at CRBN/SOS1 in human A549 cells assessed as protein degradation at 1 uM incubated for 24 hrs by immunoblot analysis relative to control; type: cell-based

- molecule: "COc1cc2nc(C)nc(N[C@H](C)c3cc(N)cc(C(F)(F)F)c3)c2cc1O[C@H]1CCN(C(=O)CCCNc2cccc3c2C(=O)N(C2CCC(=O)NC2=O)C3=O)C1 (stereo partly drawn)"
  Activity: "0%"
- molecule: "COc1cc2nc(C)nc(N[C@H](C)c3cc(N)cc(C(F)(F)F)c3)c2cc1O[C@H]1CCN(C(=O)CNc2cccc3c2C(=O)N(C2CCC(=O)NC2=O)C3=O)C1 (stereo partly drawn)"
  Activity: "2.6%"
- molecule: "COc1cc2nc(C)nc(N[C@H](C)c3cc(N)cc(C(F)(F)F)c3)c2cc1O[C@H]1CCN(C(=O)CCCCCCCCCCC(=O)Nc2cccc3c2CN(C2CCC(=O)NC2=O)C3=O)C1 (stereo partly drawn)"
  Activity: "0%"

###

Entries and their Activity
target: Protein cereblon/Son of sevenless homolog 1 (Homo sapiens, UniProt Q07889+Q96SW2); assay: PROTAC activity at CRBN/SOS1 in human A549 cells assessed as protein degradation at 10 uM incubated for 24 hrs by immunoblot analysis relative to control; format: cell-based
measured_property: Activity (%)

- compound: "COc1cc2nc(C)nc(N[C@H](C)c3cc(N)cc(C(F)(F)F)c3)c2cc1O[C@H]1CCN(C(=O)CCCCCNc2ccc3c(c2)C(=O)N(C2CCC(=O)NC2=O)C3=O)C1 (stereo partly drawn)"
  assay_result: 19.3
- compound: "COc1cc2nc(C)nc(N[C@H](C)c3cc(N)cc(C(F)(F)F)c3)c2cc1O[C@H]1CCN(C(=O)CCC(=O)Nc2cccc3c2C(=O)N(C2CCC(=O)NC2=O)C3)C1 (stereo partly drawn)"
  assay_result: 0
- compound: "COc1cc2nc(C)nc(N[C@H](C)c3cc(N)cc(C(F)(F)F)c3)c2cc1O[C@H]1CCN(C(=O)CCCCCNc2cccc3c2C(=O)N(C2CCC(=O)NC2=O)C3=O)C1 (stereo partly drawn)"
  assay_result: 6.7
- compound: "COc1cc2nc(C)nc(N[C@H](C)c3cc(N)cc(C(F)(F)F)c3)c2cc1O[C@H]1CCN(C(=O)CC(=O)Nc2cccc3c2C(=O)N(C2CCC(=O)NC2=O)C3)C1 (stereo partly drawn)"
  assay_result: 9.2
- compound: "COc1cc2nc(C)nc(N[C@H](C)c3cc(N)cc(C(F)(F)F)c3)c2cc1O[C@H]1CCN(C(=O)CCCNc2ccc3c(c2)C(=O)N(C2CCC(=O)NC2=O)C3=O)C1 (stereo partly drawn)"
  assay_result: 9.4
- compound: "COc1cc2nc(C)nc(N[C@H](C)c3cc(N)cc(C(F)(F)F)c3)c2cc1O[C@H]1CCN(C(=O)CCC(=O)Nc2ccc3c(c2)CN(C2CCC(=O)NC2=O)C3=O)C1 (stereo partly drawn)"
  assay_result: 2.4
- compound: "COc1cc2nc(C)nc(N[C@H](C)c3cc(N)cc(C(F)(F)F)c3)c2cc1O[C@H]1CCN(C(=O)CCCCC(=O)Nc2ccc3c(c2)CN(C2CCC(=O)NC2=O)C3=O)C1 (stereo partly drawn)"
  assay_result: 15.6
- compound: "COc1cc2nc(C)nc(N[C@H](C)c3cc(N)cc(C(F)(F)F)c3)c2cc1O[C@H]1CCN(C(=O)CCCCC(=O)Nc2cccc3c2CN(C2CCC(=O)NC2=O)C3=O)C1 (stereo partly drawn)"
  assay_result: 0
- compound: "COc1cc2nc(C)nc(N[C@H](C)c3cc(N)cc(C(F)(F)F)c3)c2cc1O[C@H]1CCN(C(=O)CC(=O)Nc2cccc3c2CN(C2CCC(=O)NC2=O)C3=O)C1 (stereo partly drawn)"
  assay_result: 7
- compound: "COc1cc2nc(C)nc(N[C@H](C)c3cc(N)cc(C(F)(F)F)c3)c2cc1O[C@H]1CCN(C(=O)CNc2ccc3c(c2)C(=O)N(C2CCC(=O)NC2=O)C3=O)C1 (stereo partly drawn)"
  assay_result: 1.5
- compound: "COc1cc2nc(C)nc(N[C@H](C)c3cc(N)cc(C(F)(F)F)c3)c2cc1O[C@H]1CCN(C(=O)CC(=O)Nc2ccc3c(c2)C(=O)N(C2CCC(=O)NC2=O)C3)C1 (stereo partly drawn)"
  assay_result: 7.5
- compound: "COc1cc2nc(C)nc(N[C@H](C)c3cc(N)cc(C(F)(F)F)c3)c2cc1O[C@H]1CCN(C(=O)CCCCCCCNc2ccc3c(c2)C(=O)N(C2CCC(=O)NC2=O)C3=O)C1 (stereo partly drawn)"
  assay_result: 42.9
- compound: "COc1cc2nc(C)nc(N[C@H](C)c3cc(N)cc(C(F)(F)F)c3)c2cc1O[C@H]1CCN(C(=O)CC(=O)Nc2ccc3c(c2)CN(C2CCC(=O)NC2=O)C3=O)C1 (stereo partly drawn)"
  assay_result: 9.3

Where do these numbers come from? They come from ChEMBL document CHEMBL5550100.
